- target.system: Human recombinant His-tagged PFKFB3 (Homo sapiens)
- Construct: His
- Sequence (Q16875 whole entry): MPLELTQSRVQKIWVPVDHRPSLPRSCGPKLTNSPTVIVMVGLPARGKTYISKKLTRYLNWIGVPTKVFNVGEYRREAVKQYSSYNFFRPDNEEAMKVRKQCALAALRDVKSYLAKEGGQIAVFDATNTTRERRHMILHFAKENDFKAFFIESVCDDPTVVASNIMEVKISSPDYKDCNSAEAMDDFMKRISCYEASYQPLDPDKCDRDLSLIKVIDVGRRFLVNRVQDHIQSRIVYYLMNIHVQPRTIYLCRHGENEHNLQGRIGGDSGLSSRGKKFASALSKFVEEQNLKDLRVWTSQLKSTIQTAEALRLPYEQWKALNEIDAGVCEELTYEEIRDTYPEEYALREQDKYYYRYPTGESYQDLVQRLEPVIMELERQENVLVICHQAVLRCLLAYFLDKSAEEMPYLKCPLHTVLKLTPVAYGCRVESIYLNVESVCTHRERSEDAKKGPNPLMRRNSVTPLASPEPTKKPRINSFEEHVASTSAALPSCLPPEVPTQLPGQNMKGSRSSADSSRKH
- test.details: PFKFB3 IC50 Determination Assay (in vitro kinase assay, modified ADP-Glo system)
- stated.conditions: ATP 20 μM and fructose-6-phosphate 2 μM (Km), 25 nM PFKFB3, 2 h, rt, ADP-Glo luminescence
Known IC50 of a selection of molecules

Cc1coc2ccc(-c3cc(Nc4cnccc4C#N)cc4nccnc34)cc12; 0.001 to 1 µM

GET /value?item= `CN1CCN(c2ccncc2Nc2cc(-c3ccc4c(ccn4C)c3)c3nccnc3c2)CC1` &field=IC50 returns 1 to 10 µM

GET /value?item= `Cn1cncc1CNC(=O)c1ccncc1Nc1cc(-c2ccc3ccn(C)c3c2)c2nccnc2c1` &field=IC50 returns 0.001 to 1 µM

---

- target.system: Human recombinant His-tagged PFKFB3 (Homo sapiens)
- Construct: His
- test.details: PFKFB3 IC50 Determination Assay (in vitro kinase assay, modified ADP-Glo system)
- stated.conditions: ATP 20 μM and fructose-6-phosphate 2 μM (Km), 25 nM PFKFB3, 2 h, rt, ADP-Glo luminescence
Structures can show the parent of a compound that is named as a salt.
quantity: IC50

// below: answered compounds
Cn1ccc2ccc(-c3cc(Nc4ccccc4S(C)(=O)=O)cc4nccnc34)nc21 [Example 21, trifluoroacetate]; 0.001 to 1 µM
CC(=O)N1CCN(c2ccc(S(C)(=O)=O)c(Nc3cc(-c4ccc5ccn(C)c5c4)c4nccnc4c3)c2)CC1; 1 to 10 µM
CC(=O)N1CCN(c2ccncc2Nc2cc(-c3ccc4ccn(C)c4c3)c3nccnc3c2)CC1; 0.001 to 1 µM

GET /value?item= `Cn1ccc2ccc(-c3cc(Nc4cc(C(=O)NN)ccc4S(C)(=O)=O)cc4nccnc34)cc21` &field=IC50 returns 0.001 to 1 µM

GET /value?item= `Cn1ccc2ccc(-c3cc(Nc4cccnc4N)cc4nccnc34)cc21` &field=IC50 returns 1 to 10 µM

GET /value?item= `Cn1ccc2ccc(-c3cc(Nc4cc(C(N)=O)ccc4S(C)(=O)=O)cc4nccnc34)cc21` &field=IC50 returns 0.001 to 1 µM

GET /value?item= `CC(C)Oc1cccc(-c2cc(Nc3cnccc3S(C)(=O)=O)cc3nccnc23)c1` &field=IC50 returns 10 to 100 µM

GET /value?item= `Cc1csc2ccc(-c3cc(Nc4cnccc4C#N)cc4nccnc34)cc12` &field=IC50 returns 0.001 to 1 µM

GET /value?item= `CS(=O)(=O)c1ccncc1Nc1cc(-c2cccc(-c3cn[nH]n3)c2)c2nccnc2c1` &field=IC50 returns 10 to 100 µM

GET /value?item= `CN(C)Cc1ccccc1Nc1cc(-c2ccc3ccn(C)c3c2)c2nccnc2c1` &field=IC50 returns 0.001 to 1 µM

GET /value?item= `Cn1ccc2ccc(-c3cc(Nc4cc(-n5ccnc5)ccc4S(C)(=O)=O)cc4nccnc34)cc21` &field=IC50 returns 0.001 to 1 µM

GET /value?item= `Cc1cccc(-c2cc(Nc3cnccc3S(C)(=O)=O)cc3nccnc23)c1` &field=IC50 returns 1 to 10 µM

GET /value?item= `Cn1ccc2ccc(-c3cc(Nc4cnccc4C(=O)Oc4ccnc(N)n4)cc4nccnc34)cc21` &field=IC50 returns 0.001 to 1 µM

GET /value?item= `Cc1cc2ccn(C)c2cc1-c1cc(Nc2cnccc2S(C)(=O)=O)cc2nccnc12` &field=IC50 returns 0.001 to 1 µM

GET /value?item= CN1CCC(NC(=O)c2ccncc2Nc2cc(-c3ccc(Br)cc3)c3nccnc3c2)C1 (centres unmarked) &field=IC50 returns 0.001 to 1 µM

GET /value?item= `Cn1ccc2ccc(-c3cc(Nc4ccncc4C#N)cc4nccnc34)cc21` &field=IC50 returns 1 to 10 µM

GET /value?item= `Cn1ccc2ccc(-c3cc(Nc4cnccc4C(=O)NC4CCCCC4)cc4nccnc34)cc21` &field=IC50 returns 1 to 10 µM
